These data points were gathered from paper PMC9633546.

Experiment: in vitro
Conditions: plasma
Result Type: fraction unbound
// keep it numeric: no unit symbol after the value

Please give the measured fraction unbound for this compound: CO[C@H]1/C=C/O[C@@]2(C)Oc3c(C)c(O)c4c(c3C2=O)C2=NC3(CCN(CC(C)C)CC3)NC2=C(NC(=O)/C(C)=C\C=C\[C@H](C)[C@H](O)[C@@H](C)[C@@H](O)[C@@H](C)[C@H](OC(C)=O)[C@@H]1C)C4=O [rifabutin] 0.0376
